Known melting point of a selection of compounds

>  <compound>
COc1ccc(Cl)cc1CC1CNC(=O)CN(C(=O)Nc2cccc(NC(C)=O)c2)C1=O (stereo not given)

>  <melting point>
130 to 131 °C

$$$$
>  <compound>
CN1CNC(=N[N+](=O)[O-])N(Cc2ccc(Cl)nc2)C1

>  <melting point>
150 to 154 °C

$$$$
>  <compound>
CN1CCC=C(c2nsnc2SCCCC(=O)O)C1

>  <melting point>
99 to 101 °C

$$$$
>  <compound>
CCOC(=O)C1=C(C)NC(=O)N(C(=O)CC)C1c1cccc([N+](=O)[O-])c1 (stereo not given)

>  <melting point>
152 to 154 °C

$$$$
>  <compound>
Nc1cc(Sc2cccc3cnccc23)c(Cl)cc1[N+](=O)[O-]

>  <melting point>
> 270 °C

$$$$
>  <compound>
Cc1cccc(C(=O)NCN2CCN(c3ccccc3C#N)CC2)c1

>  <melting point>
131 to 133 °C

$$$$
>  <compound>
CCOC(=O)CN1C(=O)c2cccc3c(Sc4ccccc4)ccc(c23)C1=O

>  <melting point>
132 to 134 °C

$$$$
>  <compound>
COc1ccc(C(=O)Nc2ccc(CCc3ccc(O)c(O)c3)cc2)c(O)c1

>  <melting point>
179 to 180 °C

$$$$
>  <compound>
Clc1ccc(-c2ccc(N3CCCN(c4ccc(-c5ccc(Cl)cc5)cn4)CC3)nc2)cc1

>  <melting point>
245 to 247 °C

$$$$
>  <compound>
O=S1(=O)N=CN(C2CC2)c2cc(F)cc(Br)c21

>  <melting point>
270 to 273 °C

$$$$
